target: DRB4*0101 (human, UniProt P01903 26-216, limits assumed); assay: competition vs 125I probe peptide, purified MHC II
pIC50: −log10 of the molar value.
Entries and their pIC50 values follow.
property: pIC50

binder: DTPRKLFRVYSNFLR
reported: 6.38
//
binder: DTKRKLFRVYSNFLR
reported: 6.13

Origin of values: patent US20070184519A1
